Attribute: protein stability index
- Tested on: Saccharomyces cerevisiae
- EXPERIMENT SUMMARY: protein stability index of tFT-peptide fusion (C-terminal peptide) (PSI (0-1 scale)); higher = more stable (slower turnover)
- ASSAY SETUP: genetic background: wild type; temperature: 30 C

Some solved entries appear below for comparison.
• RGHLPPIGLTRH = 0.675
• WRSGLRGPAIYG = 0.707
• DSVQALDGRAGI = 0.683
• VLACVAQAACCR = 0.556
• GWRRRIWLCRLQ = 0.505
• KSILTRTVNSNQ = 0.659

// fetch protein stability index for "PFLCCPRMSHFL" ; system: Saccharomyces cerevisiae
0.705

// fetch protein stability index for "GTSSTPPPPAPP" ; system: Saccharomyces cerevisiae
0.661

// fetch protein stability index for "LRTRKKTIDHHN" ; system: Saccharomyces cerevisiae
0.663

// fetch protein stability index for "AFQLGMILSLVA" ; system: Saccharomyces cerevisiae
0.507

// fetch protein stability index for "PPICLCHDPAAH" ; system: Saccharomyces cerevisiae
0.659

// fetch protein stability index for "VLRARQGVREPP" ; system: Saccharomyces cerevisiae
0.526

// fetch protein stability index for "IPFFHVVPRPPP" ; system: Saccharomyces cerevisiae
0.628

// fetch protein stability index for "RACKKGTKRIRI" ; system: Saccharomyces cerevisiae
0.613

// fetch protein stability index for "LPGFPPSLLPRL" ; system: Saccharomyces cerevisiae
0.777

// fetch protein stability index for "GYPRPLPYTPST" ; system: Saccharomyces cerevisiae
0.687

// fetch protein stability index for "LPGSLISPSSPP" ; system: Saccharomyces cerevisiae
0.721

// fetch protein stability index for "KRKKKRQKNKGK" ; system: Saccharomyces cerevisiae
0.766

// fetch protein stability index for "FLPFFFCLPSSL" ; system: Saccharomyces cerevisiae
0.628

// fetch protein stability index for "GSGWRSRRAPGP" ; system: Saccharomyces cerevisiae;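 further: PSI is a weighted mean of sequencing reads over stability bins, variants kept only with over 10 reads, mCherry proximal and sfGFP distal, peptide attached via GGGS linker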
0.747
